// data source = PubChem BioAssay (NCI)

# reported growth; entries follow
Tested on: UO-31 renal
Assay: NCI-60 one-dose screen, 48 h (100 = growth as untreated, 0 = no growth, -100 = all killed)
Conditions: 10 µM unless noted
This is part of a sample that, as a whole, favours compounds with a hit. Of some 83,000 tested, about 20% had one in any assay.

molecule: Cc1cc(-c2ccccc2)nc2ccccc12
growth [%]: 77
--
molecule: COCCNC(C(=O)c1ccccc1)c1ccccc1 (stereo not drawn)
growth [%]: 97.7
--
molecule: O=c1c(-c2ccc3c(c2)OCO3)coc2c(CO)c(O)ccc12
growth [%]: -81.9
--
molecule: O=C(Nc1ccc(-n2ccc3c(NC(=O)c4ccccc4)nccc32)cc1)Nc1cccc(C(F)(F)F)c1
growth [%]: 78
--
molecule: COc1ccc(CNc2nc3ccccc3c3c(=O)c4ccccc4sc23)cc1OC
growth [%]: 85
--
molecule: O=C(Nc1ccc(-n2ccc3c(NC(=O)c4ccccc4)ncnc32)cc1)Nc1ccc(Cl)c(Cl)c1
growth [%]: 9.15
--
molecule: Cc1cn([C@]2(CF)O[C@H](CO)C2C)c(=O)[nH]c1=O (stereo partly drawn)
growth [%]: 109
--
molecule: Nc1nc(Cl)c2c(C(F)(F)F)cn(CC3CCNCC3)c2n1
growth [%]: 91.6
--
molecule: Cc1c(NC(=O)c2sc3nc4c(cc3c2N)CN(Cc2ccccc2)CC4)cccc1C(F)(F)F
growth [%]: 65.6
--
molecule: COc1ccc(N)c(S)c1
growth [%]: 78.9
--
molecule: O=S(=O)(O)c1ccc(F)cc1
growth [%]: 86.4
--
molecule: CCCCn1c(-c2cccc(OC)c2)nc2cc(OC)c(OC)cc2c1=O
growth [%]: 80.6
--
molecule: CC(=O)c1cc2c(N)c(C(=O)Nc3cccc(Cl)c3)sc2nc1C
growth [%]: 78.7
--
molecule: COc1cc(NC(C)CCCN2C(=O)c3ccccc3C2=O)c2nc(C)ccc2c1OC (stereo not drawn)
growth [%]: 98.1
--
molecule: COc1ccc(Cl)cc1NC(=O)c1cc2c(n1C)-c1nc(NC(=O)C(C)C)sc1CC2
growth [%]: 76.7
--
molecule: CC(C)CNCC(=O)Nc1ccc(Cc2ccc(NC(=O)CNCC(C)C)cc2)cc1
growth [%]: 38.4
--
molecule: COc1ccc(/C=N/C2=NNC(C)(c3ccccc3O)N2C(Cc2c[nH]c3ccccc23)C(=O)O)cc1 (stereo not drawn)
growth [%]: 32.1
--
molecule: O=C1OC(=O)C2C3CC(c4ccccc43)C12 (stereo not drawn)
growth [%]: 76.2
--
molecule: c1ccc(OCC[P+](c2ccccc2)(c2ccccc2)c2ccccc2)cc1
growth [%]: 63.5
--
molecule: O=C(O)c1cc2ccccc2cc1Nc1ccccc1
growth [%]: 82.5
--
molecule: Cc1cc(Nc2ccc(Cl)c(Cl)c2)nc(N)n1
growth [%]: 86.2
--
molecule: Nc1nccc2c1ccn2-c1ccc(NC(=O)c2ccc(N3CCOCC3)c(C(F)(F)F)c2)cc1
growth [%]: -41.2
--
molecule: Cc1nc(N)nc(SCc2ccccc2)c1Br
growth [%]: 54.7
